system: NCI-H727; assay: relative viability (nuclei count vs DMSO), 5 days (fraction); higher = more cells survive; details: first compound 0.1265 µM
Reported Metric: relative viability
The answer should be a number; do not append a unit.

Supply reported relative viability belonging to this molecule: C[C@@H]1CN(CC(=O)Nc2ccc3c(c2)Cc2cccc(-c4cc(=O)cc(N5CCOCC5)o4)c2S3)C[C@H](C)O1 + Cc1nc(Nc2ncc(C(=O)Nc3c(C)cccc3Cl)s2)cc(N2CCN(CCO)CC2)n1 [Dasatinib] (partner 0.075 µM)
0.368

Supply reported relative viability belonging to this molecule: COc1cc(N2CCC(C(N)=O)CC2)ccc1Nc1nc(N)c(Cl)c(Nc2ccccc2S(=O)(=O)C(C)C)n1 [HG-5-88-01] + CC(=O)c1c(C)c2cnc(Nc3ccc(N4CCNCC4)cn3)nc2n(C2CCCC2)c1=O [Palbociclib] (partner 0.5 µM)
0.629

Supply reported relative viability belonging to this molecule: COc1cc(N2CCC(C(N)=O)CC2)ccc1Nc1nc(N)c(Cl)c(Nc2ccccc2S(=O)(=O)C(C)C)n1 [HG-5-88-01] + Cc1cc(Nc2cc(N3CCN(C)CC3)nc(Sc3ccc(NC(=O)C4CC4)cc3)n2)n[nH]1 [Tozasertib] (partner 0.1 µM)
0.665

Supply reported relative viability belonging to this molecule: COc1cc(N2CCC(C(N)=O)CC2)ccc1Nc1nc(N)c(Cl)c(Nc2ccccc2S(=O)(=O)C(C)C)n1 [HG-5-88-01] + Cc1nc(Nc2ncc(C(=O)Nc3c(C)cccc3Cl)s2)cc(N2CCN(CCO)CC2)n1 [Dasatinib] (partner 0.075 µM)
0.334

src = the supplement of paper PMC10307832
